B1: Tesmin, residues 368 to 403; numbered along this chain, Q9Y4I5 (parent)
chain: KGCNCRRSGCLKNYCECYEAQIMCSSICKCIGCKNY

# Variants of: B1
# assayText: abundance fitness (aPCA) (normalised: wild type 0, dead -1); higher = more abundant; growth selection in yeast, the domain comes from the species named
# measurementSetup: Homo sapiens
For each record, write down the corresponding abundance fitness.
Answers are plain numbers.

Which abundance fitness value is on record for Y36V ?
0.286

Which abundance fitness value is on record for N35L ?
-0.861

Which abundance fitness value is on record for C24T ?
-0.294

Which abundance fitness value is on record for L11M ?
0.038

Which abundance fitness value is on record for S25P ?
-0.521

Which abundance fitness value is on record for L11G ?
-0.064

Which abundance fitness value is on record for N35F ?
-0.614

Which abundance fitness value is on record for N13E ?
-0.061

Which abundance fitness value is on record for I31E ?
0.311

Which abundance fitness value is on record for N35G ?
0.211

Report abundance fitness for each item below.
1. M23Q
2. R6T

[-0.016, 0.239]

Every entry's value here was drawn from the Human Domainome abundance scans (Beltran et al. 2025).
